- Assay Summary: Antiviral activity against Influenza A virus A/California/07/2009 infected in MDCK cells assessed as cell protection after 3 days by cytopathic effect assay
- Type: functional, cell-based, Influenza A virus (A/California/07/2009(H1N1))
- Measurement Conditions: 72 h
Property: pEC50
Remember the convention: pEC50 equals -log10 of concentration in molar.

input: Output measured pEC50 for this item: O=C(O)[C@H]1C2CCC(CC2)[C@@H]1Nc1nc(-c2c[nH]c3ncc(F)cc23)ncc1F
output: 8.74

* * *

- Assay Summary: Oral bioavailability in rat at 3 mg/kg
- Assay type: ADME, organism-based
- Measurement Conditions: in vivo
Property: bioavailability

input: Output measured bioavailability for this item: Cn1cncc1C(=O)N[C@@H]1CCC[C@H](Nc2nc(-c3c[nH]c4ncc(F)cc34)ncc2F)C1
output: 100%

input: Output measured bioavailability for this item: O=C(N[C@@H]1CCC[C@H](Nc2nc(-c3c[nH]c4ncc(F)cc34)ncc2F)C1)N1CCOCC1
output: 46%

input: Output measured bioavailability for this item: O=C(O)[C@H]1CCCC[C@@H]1Nc1nc(-c2c[nH]c3ncc(Cl)cc23)ncc1F (racemic)
output: 7%

input: Output measured bioavailability for this item: C[C@]1(C(=O)O)CCCC[C@@H]1Nc1nc(-c2c[nH]c3ncc(Cl)cc23)ncc1F (racemic)
output: 82%

input: Output measured bioavailability for this item: O=C(O)[C@H]1C2CCC(CC2)[C@@H]1Nc1nc(-c2c[nH]c3ncc(Cl)cc23)ncc1F
output: 24%

input: Output measured bioavailability for this item: O=C(O)[C@H]1C2CCC(CC2)[C@@H]1Nc1nc(-c2c[nH]c3ncc(F)cc23)ncc1F [PIMODIVIR]
output: 26%

* * *

- Assay Summary: Antiviral activity against Influenza A virus A/Texas/48/2009 infected in MDCK cells assessed as cell protection after 3 days by cytopathic effect assay
- Type: functional, cell-based, Influenza A virus (A/Texas/48/2009(H1N1))
- Measurement Conditions: 72 h
Property: pEC50
Remember the convention: pEC50 equals -log10 of concentration in molar.

input: Output measured pEC50 for this item: O=C(O)[C@H]1C2CCC(CC2)[C@@H]1Nc1nc(-c2c[nH]c3ncc(F)cc23)ncc1F
output: 8.55

* * *

- Assay Summary: Cmax in mouse at 30 mg/kg
- Format: ADME, organism-based
- Design: dose 30 mg/kg
- Measurement Conditions: in vivo
Property: Cmax (ng/mL)
Please give a number only; it is taken to be in ng/mL.

Field: example entries. Status: answers known.
> print(dat)
                                   molecule  unit.name  quantitative.readout
1  Cn1cncc1C(=O)N[C@@H]1CCC[C@H](Nc2nc(-c3c[nH]c4ncc(F)cc34)ncc2F)C1      ng/mL                 13000
2  O=C(N[C@@H]1CCC[C@H](Nc2nc(-c3c[nH]c4ncc(F)cc34)ncc2F)C1)N1CCOCC1      ng/mL                 18200
3  O=C(O)[C@H]1C2CCC(CC2)[C@@H]1Nc1nc(-c2c[nH]c3ncc(Cl)cc23)ncc1F      ng/mL                  3700
4  C[C@]1(C(=O)O)CCCC[C@@H]1Nc1nc(-c2c[nH]c3ncc(Cl)cc23)ncc1F (racemic)      ng/mL                  1300
5  O=C(O)[C@H]1C2CCC(CC2)[C@@H]1Nc1nc(-c2c[nH]c3ncc(F)cc23)ncc1F [PIMODIVIR]      ng/mL                 18000

// below: Cmax requested for another molecule
input: Output measured Cmax for this item: OC[C@H](O)CN1CCC[C@H](Nc2nc(-c3c[nH]c4ncc(Cl)cc34)ncc2F)C1
output: 1200

* * *

- Assay Summary: Cmax in rat at 3 mg/kg, po
- Format: ADME, organism-based
- Set-up: dose 3 mg/kg, route oral
- Measurement Conditions: in vivo
Property: Cmax (ng/mL)
Please give a number only; it is taken to be in ng/mL.

Field: example entries. Status: answers known.
> print(dat)
                                   compound  quantitative.readout
1  O=C(N[C@@H]1CCC[C@H](Nc2nc(-c3c[nH]c4ncc(F)cc34)ncc2F)C1)N1CCOCC1                   200
2  O=C(O)[C@H]1C2CCC(CC2)[C@@H]1Nc1nc(-c2c[nH]c3ncc(Cl)cc23)ncc1F                    30
3  O=C(O)[C@H]1CCCC[C@@H]1Nc1nc(-c2c[nH]c3ncc(Cl)cc23)ncc1F (racemic)                    30
4  C[C@]1(C(=O)O)CCCC[C@@H]1Nc1nc(-c2c[nH]c3ncc(Cl)cc23)ncc1F (racemic)                   200
5  Cn1cncc1C(=O)N[C@@H]1CCC[C@H](Nc2nc(-c3c[nH]c4ncc(F)cc34)ncc2F)C1                   600

// below: Cmax requested for another compound
input: Output measured Cmax for this item: O=C(O)[C@H]1C2CCC(CC2)[C@@H]1Nc1nc(-c2c[nH]c3ncc(F)cc23)ncc1F
output: 80

* * *

- Measurement Target: Polymerase basic protein 2 (Influenza A virus (strain A/Puerto Rico/8/1934 H1N1), UniProt P03428)
- Sequence (P03428 whole entry): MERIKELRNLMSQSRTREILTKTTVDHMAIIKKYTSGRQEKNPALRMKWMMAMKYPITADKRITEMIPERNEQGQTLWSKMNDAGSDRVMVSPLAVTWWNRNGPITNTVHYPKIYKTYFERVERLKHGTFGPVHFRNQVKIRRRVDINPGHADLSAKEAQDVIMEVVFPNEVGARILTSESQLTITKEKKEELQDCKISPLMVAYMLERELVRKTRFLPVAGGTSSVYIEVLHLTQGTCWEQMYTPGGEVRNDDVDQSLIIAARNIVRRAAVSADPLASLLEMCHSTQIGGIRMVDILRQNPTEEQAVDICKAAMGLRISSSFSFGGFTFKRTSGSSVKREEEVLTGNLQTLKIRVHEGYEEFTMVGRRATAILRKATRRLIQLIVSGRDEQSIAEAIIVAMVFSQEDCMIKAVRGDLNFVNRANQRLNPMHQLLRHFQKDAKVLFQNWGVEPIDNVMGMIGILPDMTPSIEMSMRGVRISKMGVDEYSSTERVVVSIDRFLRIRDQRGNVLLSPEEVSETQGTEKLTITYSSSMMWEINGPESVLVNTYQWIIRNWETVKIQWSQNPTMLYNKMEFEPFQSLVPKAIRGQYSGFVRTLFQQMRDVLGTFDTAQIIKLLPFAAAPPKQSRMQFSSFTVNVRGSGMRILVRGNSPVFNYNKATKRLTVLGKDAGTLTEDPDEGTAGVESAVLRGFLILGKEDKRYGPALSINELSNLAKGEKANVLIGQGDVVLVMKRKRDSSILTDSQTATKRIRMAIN
- Assay Summary: Binding affinity to influenza A virus (A/Puerto Rico/8/1934(H1N1)) PB2 by competition binding fluorescence polarization (FP) assay
Here, each record is paired with measured Kd data.
Please give a number only; it is taken to be in nM.

Field: example entries. Status: answers known.
> print(dat)
                  compound.structure.string  quantitative.readout
1  CC(=O)N[C@H]1CCCC[C@@H]1Nc1nc(-c2c[nH]c3ncc(Cl)cc23)ncc1F                   100
2  Cn1cncc1C(=O)N[C@@H]1CCC[C@H](Nc2nc(-c3c[nH]c4ncc(Cl)cc34)ncc2F)C1                    20

input: Output measured Kd for this item: COCCC(=O)N1CCC[C@H](Nc2nc(-c3c[nH]c4ncc(Cl)cc34)ncc2F)C1
output: 100

* * *

Here, each record is paired with measured AUC data.
- Assay Summary: AUC in mouse at 30 mg/kg
- Format: ADME, organism-based
- Parameters: dose 30 mg/kg
- Measurement Conditions: plasma
Please give a number only; it is taken to be in ng·h/mL.

Field: example entries. Status: answers known.
> print(dat)
                                   compound  quantitative.readout
1  C[C@]1(C(=O)O)CCCC[C@@H]1Nc1nc(-c2c[nH]c3ncc(Cl)cc23)ncc1F (racemic)                  2400
2  OC[C@H](O)CN1CCC[C@H](Nc2nc(-c3c[nH]c4ncc(Cl)cc34)ncc2F)C1                  6500
3  Cn1cncc1C(=O)N[C@@H]1CCC[C@H](Nc2nc(-c3c[nH]c4ncc(F)cc34)ncc2F)C1                 19000
4  O=C(O)[C@H]1C2CCC(CC2)[C@@H]1Nc1nc(-c2c[nH]c3ncc(F)cc23)ncc1F                 22000

input: Output measured AUC for this item: O=C(O)[C@H]1C2CCC(CC2)[C@@H]1Nc1nc(-c2c[nH]c3ncc(Cl)cc23)ncc1F
output: 10000

input: Output measured AUC for this item: O=C(N[C@@H]1CCC[C@H](Nc2nc(-c3c[nH]c4ncc(F)cc34)ncc2F)C1)N1CCOCC1
output: 180000

* * *

Here, each record is paired with measured log10 clearance data.
- Assay Summary: Clearance in rat at 3 mg/kg, iv
- Assay type: ADME, organism-based
- Design: dose 3 mg/kg, route intravenous
- Measurement Conditions: in vivo
A difference of one corresponds to tenfold clearance; all values are log10 with clearance in mL/min/kg.

> print(dat)
                                   molecule         property  quantitative.readout
1  OC[C@H](O)CN1CCC[C@H](Nc2nc(-c3c[nH]c4ncc(Cl)cc34)ncc2F)C1  log10 clearance                  1.75
2  O=C(N[C@@H]1CCC[C@H](Nc2nc(-c3c[nH]c4ncc(Cl)cc34)ncc2F)C1)N1CCOCC1  log10 clearance                  1.77
3  COCCC(=O)N1CCC[C@H](Nc2nc(-c3c[nH]c4ncc(Cl)cc34)ncc2F)C1  log10 clearance                  1.94
4  Cn1cncc1C(=O)N[C@@H]1CCC[C@H](Nc2nc(-c3c[nH]c4ncc(F)cc34)ncc2F)C1  log10 clearance                  1.34
5  O=C(O)[C@H]1CCCC[C@@H]1Nc1nc(-c2c[nH]c3ncc(Cl)cc23)ncc1F (racemic)  log10 clearance                  1.20
6  O=C(N[C@@H]1CCC[C@H](Nc2nc(-c3c[nH]c4ncc(C(F)(F)F)cc34)ncc2F)C1)N1CCOCC1  log10 clearance                  1.91
7  O=C(O)[C@H]1C2CCC(CC2)[C@@H]1Nc1nc(-c2c[nH]c3ncc(F)cc23)ncc1F  log10 clearance                  1.41
8  NC(=O)CN1CCC[C@H](Nc2nc(-c3c[nH]c4ncc(Cl)cc34)ncc2F)C1  log10 clearance                  2.26

input: Output measured log10 clearance for this item: Cc1cnc2[nH]cc(-c3ncc(F)c(N[C@H]4CCC[C@@H](NC(=O)N5CCOCC5)C4)n3)c2c1
output: 1.89

input: Output measured log10 clearance for this item: C[C@]1(C(=O)O)CCCC[C@@H]1Nc1nc(-c2c[nH]c3ncc(Cl)cc23)ncc1F (racemic)
output: 1.38

input: Output measured log10 clearance for this item: CS(=O)(=O)N1CCCC[C@@H]1CNc1nc(-c2c[nH]c3ncc(Cl)cc23)ncc1F
output: 2.18

input: Output measured log10 clearance for this item: O=C(O)[C@H]1C2CCC(CC2)[C@@H]1Nc1nc(-c2c[nH]c3ncc(Cl)cc23)ncc1F
output: 1.51

input: Output measured log10 clearance for this item: O=C(N[C@@H]1CCC[C@H](Nc2nc(-c3c[nH]c4ncc(F)cc34)ncc2F)C1)N1CCOCC1
output: 1.34
